biological target: HLA-B*45:06; assay: IEDB peptide-MHC binding, purified MHC/competitive/fluorescence; filed as Kd, often an IC50 or EC50 that approximates it; bounds were set here for any values at or beyond the usual limits of such assays; conditions: source organism: Mycobacterium tuberculosis variant bovis BCG str. Pasteur 1173P2
pKd: −log10 of the molar value.
Recorded metric: pKd

Query string: Query pKd for MTMITPPTF
Result string: ≤ 5.30

* * *

molecular target: HLA-A*11:01; experiment: IEDB peptide-MHC binding, purified MHC/direct/fluorescence; filed as Kd, often an IC50 or EC50 that approximates it; bounds were set here for any values at or beyond the usual limits of such assays; conditions: source organism: Influenza A virus (A/duck/Korea/S10/03(H3N2))
Recorded metric: Kd

Query string: Query Kd for PAHKSQLVW
Result string: ≥ 20 µM

* * *

target: HLA-B*08:01; experiment: IEDB peptide-MHC binding, purified MHC/competitive/radioactivity; filed as Kd, often an IC50 or EC50 that approximates it; bounds were set here for any values at or beyond the usual limits of such assays; conditions: source organism: Dengue virus 4 Philippines/H241/1956
Recorded metric: pKd
API: returns pKd as number; meaning -log10 of concentration in mol/L.

Query string: Query pKd for LSIPPTAGIL
Result string: 5.63

* * *

target: HLA-B*35:01; test: IEDB peptide-MHC binding, purified MHC/competitive/fluorescence; filed as Kd, often an IC50 or EC50 that approximates it; bounds were set here for any values at or beyond the usual limits of such assays; details: source organism: Shigella boydii CDC 3083-94
Recorded metric: pKd
API: returns pKd as number; meaning -log10 of concentration in mol/L.

Query string: With HLA-B*35:01 as the test system, provide measured pKd for this sequence: KAWSEGLAM
Result string: 9.70

* * *

molecular target: HLA-B*58:01; test: IEDB peptide-MHC binding, purified MHC/competitive/radioactivity; filed as Kd, often an IC50 or EC50 that approximates it; bounds were set here for any values at or beyond the usual limits of such assays; settings: source organism: Dengue virus 4 Philippines/H241/1956
Recorded metric: Kd (nM)
Form entry: value (nM) — number only.

Query string: Query Kd for MAILGETAW
Result string: 3.47

* * *

target: HLA-B*51:01; assay: IEDB peptide-MHC binding, purified MHC/competitive/fluorescence; filed as Kd, often an IC50 or EC50 that approximates it; bounds were set here for any values at or beyond the usual limits of such assays; details: source organism: Four Corners hantavirus
Recorded metric: Kd

Query string: Query Kd for PELGAFFAI
Result string: ≥ 20 µM

* * *

target: HLA-A*03:01; experiment: IEDB peptide-MHC binding, purified MHC/competitive/radioactivity; filed as Kd, often an IC50 or EC50 that approximates it; bounds were set here for any values at or beyond the usual limits of such assays; details: source organism: Mammarenavirus juninense
Recorded metric: Kd
Provide the measurement as a number trailed by its unit.

Query string: With HLA-A*03:01 as the test system, provide measured Kd for this sequence: GKQYIHCFRK
Result string: 2210 nM

* * *

molecular target: HLA-B*35:01; experiment: IEDB peptide-MHC binding, purified MHC/competitive/radioactivity; filed as Kd, often an IC50 or EC50 that approximates it; bounds were set here for any values at or beyond the usual limits of such assays; details: source organism: SARS coronavirus Tor2
Recorded metric: pKd
API: returns pKd as number; meaning -log10 of concentration in mol/L.

Biopolymer sequence | Subject of test | Recorded metric | Observed measurement
LPFYSNVTGF | HLA-B*35:01 | pKd | 7.94

Query string: Query pKd for SPSGVYQCAM
Result string: 7.58

Query string: Query pKd for SPYNSQNAVA
Result string: 5.08

* * *

molecular target: HLA-B*27:03; experiment: IEDB peptide-MHC binding, purified MHC/competitive/fluorescence; filed as Kd, often an IC50 or EC50 that approximates it; bounds were set here for any values at or beyond the usual limits of such assays; settings: source organism: Four Corners hantavirus
pKd: −log10 of the molar value.
Recorded metric: pKd

Query string: With HLA-B*27:03 as the test system, provide measured pKd for this sequence: PELGAFFAI
Result string: ≤ 4.70

* * *

biological target: HLA-A*68:02; assay: IEDB peptide-MHC binding, purified MHC/competitive/fluorescence; filed as Kd, often an IC50 or EC50 that approximates it; bounds were set here for any values at or beyond the usual limits of such assays; settings: source organism: Taterapox virus
Recorded metric: Kd

Query string: Query Kd for SYVFNFHKY
Result string: ≥ 20 µM

* * *

target: HLA-A*24:03; assay: IEDB peptide-MHC binding, purified MHC/direct/fluorescence; filed as Kd, often an IC50 or EC50 that approximates it; bounds were set here for any values at or beyond the usual limits of such assays; conditions: source organism: Camelpox virus M-96
Recorded metric: pKd
API: returns pKd as number; meaning -log10 of concentration in mol/L.

Query string: Query pKd for SYVFNFHKY
Result string: 7.26

* * *

target: HLA-B*27:05; test: IEDB peptide-MHC binding, purified MHC/direct/fluorescence; filed as Kd, often an IC50 or EC50 that approximates it; bounds were set here for any values at or beyond the usual limits of such assays; conditions: source organism: Salmonella enterica
pKd: −log10 of the molar value.
Recorded metric: pKd

Query string: Query pKd for WTDLYTSMS
Result string: ≤ 4.70

* * *

biological target: HLA-B*39:01; test: IEDB peptide-MHC binding, purified MHC/direct/fluorescence; filed as Kd, often an IC50 or EC50 that approximates it; bounds were set here for any values at or beyond the usual limits of such assays; conditions: source organism: Aracatuba virus
Recorded metric: pKd
API: returns pKd as number; meaning -log10 of concentration in mol/L.

Query string: With HLA-B*39:01 as the test system, provide measured pKd for this sequence: YKEPNSIIL
Result string: 7.52

* * *

Listing of entries alongside the reported Kd.
molecular target: HLA-A*26:01; assay: IEDB peptide-MHC binding, purified MHC/competitive/fluorescence; filed as Kd, often an IC50 or EC50 that approximates it; bounds were set here for any values at or beyond the usual limits of such assays; conditions: source organism: Zaire ebolavirus

Illustrative cases are given below, each with its answer.
Biopolymer sequence | Subject of test | Kd
SRTPSGKRL | HLA-A*26:01 | 2.12 µM
FRYEFTAPF | HLA-A*26:01 | ≥ 20 µM
GLSFLNPEK | HLA-A*26:01 | ≥ 20 µM

Query string: Query Kd for HQKKNEISF
Result string: ≥ 20 µM

Query string: Query Kd for FPSNMMVVT
Result string: ≥ 20 µM

Query string: Query Kd for RLAKLTEAI
Result string: ≥ 20 µM

* * *

target: HLA-B*46:01; assay: IEDB peptide-MHC binding, purified MHC/competitive/fluorescence; filed as Kd, often an IC50 or EC50 that approximates it; bounds were set here for any values at or beyond the usual limits of such assays; conditions: source organism: Bacillus thuringiensis serovar israelensis ATCC 35646
pKd: −log10 of the molar value.
Recorded metric: pKd

Query string: With HLA-B*46:01 as the test system, provide measured pKd for this sequence: ITMYVAFEQ
Result string: ≤ 4.70

* * *

target: HLA-B*40:02; assay: IEDB peptide-MHC binding, purified MHC/competitive/radioactivity; filed as Kd, often an IC50 or EC50 that approximates it; bounds were set here for any values at or beyond the usual limits of such assays; conditions: source organism: Mammarenavirus lassaense
Recorded metric: pKd
API: returns pKd as number; meaning -log10 of concentration in mol/L.

Query string: Query pKd for FDAATTGSL
Result string: 5.64

* * *

target: HLA-B*15:03; assay: IEDB peptide-MHC binding, purified MHC/competitive/radioactivity; filed as Kd, often an IC50 or EC50 that approximates it; bounds were set here for any values at or beyond the usual limits of such assays; conditions: source organism: Vaccinia virus WR
pKd: −log10 of the molar value.
Classify by measured pKd: condition met if it is equal to or exceeds 8, condition not met if it is smaller.

Known results for sequences:
Biopolymer sequence | Group label
SMKTVFQVF | condition met
RNKLSYRNK | condition not met
EQFVGTNSI | condition not met
LQYVHINEL | condition met
IETPNELSF | condition not met

Query string: Kindly determine if pKd recorded for RQMVNDMIF is above or exactly 8.
Result string: condition met

Query string: Kindly determine if pKd recorded for FINMTGNHF is above or exactly 8.
Result string: condition not met

Query string: Kindly determine if pKd recorded for KLLSHFYPA is above or exactly 8.
Result string: condition met

Query string: Kindly determine if pKd recorded for KQYKFYNQI is above or exactly 8.
Result string: condition not met

* * *

molecular target: HLA-A*69:01; test: IEDB peptide-MHC binding, purified MHC/direct/fluorescence; filed as Kd, often an IC50 or EC50 that approximates it; bounds were set here for any values at or beyond the usual limits of such assays; conditions: source organism: Vibrio vulnificus
Recorded metric: Kd (nM)
Form entry: value (nM) — number only.

Query string: Query Kd for SAWESFWRI
Result string: 1.4

These data points were gathered from the Immune Epitope Database (IEDB).
